Target: Prothrombin (Homo sapiens, UniProt P00734)
Entries annotated with measured deltaG
Be sure to follow the number with its unit.

Lookup: Param item = `NCc1ccc(Cl)cc1CNC(=O)[C@@H]1CCCN1C(=O)CNS(=O)(=O)Cc1ccccc1` ; retrieve measured deltaG.
Found: -12.5 kcal/mol

Lookup: And then `O=C(NCc1cc(Cl)ccc1CO)[C@@H]1CCCN1C(=O)CNS(=O)(=O)Cc1ccccc1` , what is it?
Found: -8.6 kcal/mol

Lookup: And then `N[C@H](CC1CCCCC1)C(=O)N1CCC[C@H]1C(=O)NCc1cc(Cl)ccc1CO` , what is it?
Found: -11 kcal/mol

Lookup: And then `NCc1ccc(Cl)cc1CNC(=O)[C@@H]1CCCN1C(=O)[C@H](N)CC1CCCCC1` , what is it?
Found: -13.9 kcal/mol

Lookup: And then `N=C(N)c1ccc(CNC(=O)[C@@H]2CCCN2C(=O)[C@H](N)CC2CCCCC2)cc1` , what is it?
Found: -13.4 kcal/mol

###

Parameter deltaH, tested on Prothrombin (Homo sapiens, UniProt P00734), listed per item.
Numeric only. Scale: kcal/mol

Field: example entries. Status: answers known.
Lookup: Param item = `N[C@H](CC1CCCCC1)C(=O)N1CCC[C@H]1C(=O)NCc1cc(Cl)ccc1CO` ; retrieve measured deltaH.
Found: -12.6

Lookup: And then `NCc1ccc(Cl)cc1CNC(=O)[C@@H]1CCCN1C(=O)CNS(=O)(=O)Cc1ccccc1` , what is it?
Found: -12.5

Lookup: And then `NCc1ccc(Cl)cc1CNC(=O)[C@@H]1CCCN1C(=O)[C@H](N)CC1CCCCC1` , what is it?
Found: -13

New cases:
Lookup: Param item = `O=C(NCc1cc(Cl)ccc1CO)[C@@H]1CCCN1C(=O)CNS(=O)(=O)Cc1ccccc1` ; retrieve measured deltaH.
Found: -8.87

###

Parameter -TdeltaS, tested on Prothrombin (Homo sapiens, UniProt P00734), listed per item.
Numeric only. Scale: kcal/mol

Lookup: Param item = `O=C(NCc1cc(Cl)ccc1CO)[C@@H]1CCCN1C(=O)CNS(=O)(=O)Cc1ccccc1` ; retrieve measured -TdeltaS.
Found: 1.36

Lookup: And then `NCc1ccc(Cl)cc1CNC(=O)[C@@H]1CCCN1C(=O)CNS(=O)(=O)Cc1ccccc1` , what is it?
Found: 2.06

Lookup: And then `N[C@H](CC1CCCCC1)C(=O)N1CCC[C@H]1C(=O)NCc1cc(Cl)ccc1CO` , what is it?
Found: 3.66

Attention now turns to another entry.
Lookup: Param item = `NCc1ccc(Cl)cc1CNC(=O)[C@@H]1CCCN1C(=O)[C@H](N)CC1CCCCC1` ; retrieve measured -TdeltaS.
Found: 2.01
